The following compounds are listed with their measured pKi values.
Biological target: C1b domain of human PKCθ (Homo sapiens, UniProt Q04759)
Construct: Genes encoding C1b domains of human PKCα, δ, ε, θ, and PKD1 (PKCμ) were synthesized; made in house; host or cells: E. coli BL21(DE3)
Sequence (Q04759 231-281 limits assumed): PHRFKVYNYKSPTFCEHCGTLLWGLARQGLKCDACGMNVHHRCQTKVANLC
Test: Competitive 3H-PDBu binding to C1b domain of PKCθ
pKi: −log10 of the molar value.

Reference set, count: 2
{"Chemical String": "CC1=C[C@H]2[C@@]3(O)[C@H](C)C[C@]4(OC(=O)[C@@H](N)C5Cc6ccccc6C5)[C@H]([C@@H]3C=C(CO)C[C@]2(O)C1=O)C4(C)C", "pKi": "8.00 to 8.30"}
{"Chemical String": "CC1=C[C@H]2[C@@]3(O)[C@H](C)C[C@]4(OC(=O)C5CC6(CNC6)C5)[C@H]([C@@H]3C=C(CO)C[C@]2(O)C1=O)C4(C)C", "pKi": "6.40 to 6.70"}

Param item = `CC1=C[C@H]2[C@@]3(O)[C@H](C)C[C@]4(OC(=O)/C=C/c5ccc(C(F)(F)F)cc5)[C@H]([C@@H]3C=C(CO)C[C@]2(O)C1=O)C4(C)C` ; retrieve measured pKi.
7.52 to 9.00
